Reported inhibition values are given for each entry in this list.
Biological target: Estrogen receptor (Homo sapiens) (UniProt P03372)
Sequence (P03372 whole entry, looked up): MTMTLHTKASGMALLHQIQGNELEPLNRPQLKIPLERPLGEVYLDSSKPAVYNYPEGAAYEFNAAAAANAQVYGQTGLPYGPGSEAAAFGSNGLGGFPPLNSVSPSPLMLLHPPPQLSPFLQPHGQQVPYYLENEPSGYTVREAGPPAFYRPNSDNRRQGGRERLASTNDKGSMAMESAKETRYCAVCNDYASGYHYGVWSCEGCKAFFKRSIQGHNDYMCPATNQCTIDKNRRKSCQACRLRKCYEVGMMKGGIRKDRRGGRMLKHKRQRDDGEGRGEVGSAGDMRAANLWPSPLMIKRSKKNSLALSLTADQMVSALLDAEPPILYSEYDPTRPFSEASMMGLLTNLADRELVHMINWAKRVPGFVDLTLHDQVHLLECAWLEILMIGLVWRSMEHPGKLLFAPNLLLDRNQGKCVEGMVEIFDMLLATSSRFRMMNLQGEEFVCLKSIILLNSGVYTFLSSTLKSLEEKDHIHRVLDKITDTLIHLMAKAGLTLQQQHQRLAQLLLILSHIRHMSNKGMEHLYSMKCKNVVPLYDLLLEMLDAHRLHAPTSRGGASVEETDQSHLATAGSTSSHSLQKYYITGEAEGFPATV
Assay: blockers of coactivator recruitment to ERα – biochemical, LOPAC library, TR-FRET, primary screen (AID 694);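 note: receptor was agonist-bound with estradiol present during the assay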
Settings: TR-FRET ERalpha-coactivator peptide binding, inhibition, at 15 µM, stronger effect = higher value
About 25 (2%) of roughly 1,300 compounds were called active. This is one part of a sample in which actives are shown more often than they occur.
The reply should contain only the number, in %.

A selection of reference data follows.
1) C[N+](C)(C)CC=O : -1.9
2) Oc1ccc(O)cc1 : -2.06
3) CCCCCCCCCCCCCCCC(=O)OC(CC(=O)O)C[N+](C)(C)C (stereo not drawn) : 4.2
4) O=c1[nH]c2cc(Cl)c(Cl)cc2[nH]c1=O : 3.65
5) CN1CCN(c2nc3cc(C(F)(F)F)ccc3n3cccc23)CC1 : -4.03

Reported inhibition, compound Nc1c(S(=O)(=O)O)cc(Nc2ccc(Nc3nc(Cl)nc(Nc4ccc(S(=O)(=O)O)cc4)n3)c(S(=O)(=O)O)c2)c2c1C(=O)c1ccccc1C2=O : ____
58.5

Reported inhibition, compound O=C(O)c1cc([N+](=O)[O-])ccc1NCCCc1ccccc1 : ____
-3.54

This collection of values is drawn from PubChem BioAssay AID694.
